Molecular target: Muscarinic acetylcholine receptor M5 (Homo sapiens)
Assay: human M5 muscarinic receptor antagonists, primary screen, CHO cells, Fluo-8 calcium fluorescence (AID 624040);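 further: 0% = acetylcholine EC80 with DMSO and 100% = DMSO without agonist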
Details: CHO-hM5 cells, ACh EC80, at 3 µM, active compounds read high
The whole screen tested about 360,000 compounds, of which about 2,100 (0.58%) were called active. The sample holds actives, similar compounds and a random draw of the others, so the mix is not that of the screen.
property-name: inhibition (%)
Give just the number in %; leave the unit off.

// below: answered molecules
FC(F)Oc1ccccc1NC(=S)Nc1cccc(Cl)c1Cl	-7.36
CC(C)(C)NC(=O)CN(C(=O)c1ccc(Cl)nc1)c1cccc2ccccc12	0.44
CCN(C(=O)CSc1nnnn1-c1ccc(OC)cc1)C1CCS(=O)(=O)C1 (stereo unspecified)	12.8

inhibition measured on "Cc1cc(N2CCCC2)ccc1NC(=O)COc1ccc(Cl)cc1" = -1.18

inhibition measured on "CC1(C)Cc2nc3sc4c(SCC(=O)NC(c5ccccc5)c5ccccc5)ncnc4c3cc2CO1" = -8.35

inhibition measured on "Cc1ccn2c(=O)c(C(=O)NCCC3=CCCCC3)c(O)nc2c1" = 2.86

###

Target: Muscarinic acetylcholine receptor M5 (Homo sapiens) (UniProt P08912)
Sequence (P08912 whole entry, looked up): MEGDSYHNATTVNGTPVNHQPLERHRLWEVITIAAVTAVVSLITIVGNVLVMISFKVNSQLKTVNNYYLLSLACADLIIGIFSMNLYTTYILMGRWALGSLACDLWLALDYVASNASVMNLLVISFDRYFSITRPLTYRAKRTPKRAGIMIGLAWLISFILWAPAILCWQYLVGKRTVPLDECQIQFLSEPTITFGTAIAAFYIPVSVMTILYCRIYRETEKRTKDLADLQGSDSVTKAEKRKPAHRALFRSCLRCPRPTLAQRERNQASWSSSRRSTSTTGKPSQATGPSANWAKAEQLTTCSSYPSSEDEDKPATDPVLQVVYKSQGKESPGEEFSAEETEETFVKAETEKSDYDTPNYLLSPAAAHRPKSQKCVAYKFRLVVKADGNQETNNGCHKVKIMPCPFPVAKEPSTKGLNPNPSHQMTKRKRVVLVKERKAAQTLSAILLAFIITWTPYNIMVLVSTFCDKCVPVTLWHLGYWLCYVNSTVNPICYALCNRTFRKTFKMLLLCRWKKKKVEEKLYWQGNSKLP
Experiment: human M5 muscarinic receptor antagonists, primary screen, CHO cells, Fluo-8 calcium fluorescence (AID 624040);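 further: 0% = acetylcholine EC80 with DMSO and 100% = DMSO without agonist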
Settings: CHO-hM5 cells, ACh EC80, at 3 µM, active compounds read high
Among all 360,000 compounds or so, about 2,100 (0.58%) were called active. The entries come from a sample that favours actives as a whole.
inhibition values, listed per item
Give just the number in %; leave the unit off.

CCC(C)C(NC(=O)C1CCC(=O)N1C(=O)OCc1ccccc1)C(=O)NC(C(=O)N1CCCC1C(N)=O)C(C)CC (stereo unspecified)	5.74
CCCCCC(O)(CCN1CCCCC1)c1ccccc1 (stereo unspecified)	98.2
CCS(=O)(=O)N1CCC(N2CCN(c3ccccc3)CC2)CC1	8.56

inhibition measured on "CCOc1ccc(CN(Cc2ccco2)S(=O)(=O)c2ccc(-n3cnnn3)c(OC)c2)cc1" = 4.28

inhibition measured on CCCCCCC(O)(CCN1CCCCC1)c1ccccc1 (stereo unspecified) = 97.8

inhibition measured on CC(=O)Nc1ccc(NC(=O)C(C)OC(=O)C2CC(=O)N(CCc3ccccc3)C2)cc1 (stereo unspecified) = 7.46

inhibition measured on "CCc1ccccc1NC(=O)NCCN1CCCCC1" = -5.44

inhibition measured on C#CC(CCN1CCCCC1)(OC)c1ccccc1 (stereo unspecified) = 30.6

inhibition measured on "CC(=O)Nc1ccc(S(=O)(=O)NCC(=O)OCc2cc(=O)oc3ccc4ccccc4c23)cc1" = 0.62

inhibition measured on "O=C(CSc1nccn1-c1cccc(F)c1)NC1CCCC1" = 0.21

inhibition measured on "N#CCCN(C(=S)Nc1ccc(Cl)c(Cl)c1)C1CCCCC1" = 24.6

###

inhibition values, listed per item
Molecular target: Muscarinic acetylcholine receptor M5 (Homo sapiens)
Assay: human M5 muscarinic receptor antagonists, primary screen, CHO cells, Fluo-8 calcium fluorescence (AID 624040);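 further: 0% = acetylcholine EC80 with DMSO and 100% = DMSO without agonist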
Details: CHO-hM5 cells, ACh EC80, at 3 µM, active compounds read high
Out of some 360,000 compounds screened, about 2,100 (0.58%) were called active. Only a selection was taken, and actives are over-represented in it overall.

COc1ccc(CCNC(=O)CCC(=O)NC2CCCCC2)cc1OC	15.9% (inactive)
COc1ccc(CCNC2=C(Cl)C(=O)N(Cc3ccccc3)C2=O)cc1OC	31.8% (active)
COc1ccc(CCNc2nc(C)cc(C)n2)cc1OC	1.9% (inactive)
CN(C)C1=NC[C@H](Cc2ccccc2)N1CCc1ccc(F)cc1	2.48% (inactive)
c1ccc2c(c1)OCC(CNc1ncnc3nc[nH]c13)O2 (configuration not stated)	46.2% (active)

inhibition measured on COc1ccc(C)cc1NC(=O)C(OC(=O)c1cccc(S(=O)(=O)N(C)c2ccccc2)c1)c1ccccc1 (configuration not stated) = -1.67% (inactive)

inhibition measured on CCCCN(C(=O)C(CCSC)N1C(=O)c2ccccc2C1=O)c1c(N)n(CCC)c(=O)[nH]c1=O (configuration not stated) = -3.24% (inactive)

inhibition measured on "O=C(COC(=O)c1cccnc1Cl)Nc1ccc(S(=O)(=O)N2CCOCC2)cc1" = 13.3% (inactive)

inhibition measured on CCN(C(=O)CSc1nc2ccccc2n1CC)C1CCS(=O)(=O)C1 (configuration not stated) = -0.58% (inactive)

inhibition measured on "O=C(CSc1nnc(-c2c[nH]c3ccccc23)n1-c1ccc(F)cc1)NCc1ccco1" = -3.75% (inactive)

inhibition measured on "O=C(NCc1ccccc1)C1=C[C@H](C2CC2)C[C@H](OCc2ccc(CO)cc2)O1" = 8.59% (inactive)

inhibition measured on "CN(c1ccccc1)S(=O)(=O)c1cccc(C(=O)NNC(=O)c2ccncc2)c1" = 1.22% (inactive)

inhibition measured on "CCOc1ccc2[nH]c(=O)c(CN(CCCO)S(=O)(=O)c3ccc(F)cc3)cc2c1" = 11.3% (inactive)

inhibition measured on Cc1ccc(S(=O)(=O)N2CCN(C(=O)CCC(=O)NC3CCCc4ccccc43)CC2)cc1 (configuration not stated) = 1.42% (inactive)
